From: patent US20120208781A1

conditions: rat, in vivo, 10 mg/kg
Readout kind: Body weight Day 8

Reported Body weight Day 8 for NC[C@H]1O[C@H](O[C@H]2[C@H](O)[C@@H](O[C@H]3O[C@H](CO)[C@@H](O)[C@H](N)[C@H]3O)[C@H](N)C[C@@H]2N)[C@H](N)C[C@@H]1O : what is it?
307 g

----------
Assay: First-in-human phase 1 study: plasma pharmacokinetics of Compound 1
Assay type: in vivo
Conditions: both sexes, human, plasma, intravenous, 1 mg/kg, human plasma, single dose, 24 hours, Cohort 1 a (1 mg/kg), compartmental (2) analysis, ± SE
Source text: The initial, first-in-human (FIH) phase 1 study was a double-blind, randomized, placebo-controlled, parallel-group, single- and multiple-dose-escalation study to assess the safety, tolerability, and pharmacokinetics of Compound 1 administered IV to healthy adult volunteers. In addition, the design of this FIH phase 1 study provided rationale and support for dosing for the proposed phase 2 study in patients with cUTI (see FIG. 11). […]
Readout kind: AUC(0-inf)
Report field: quantity (unit follows the number).

Reported AUC(0-inf) for CN[C@@H]1[C@@H](O)[C@@H](O[C@@H]2[C@@H](O)[C@H](O[C@H]3OC(CNCCO)=CC[C@H]3N)[C@@H](N)C[C@H]2NC(=O)[C@@H](O)CCN)OC[C@]1(C)O [Compound 1] : what is it?
15000 ng·h/mL
